Taken from patent US11572369B2.

experiment: Mouse PK, oral 1 mg/kg; assay type: in vivo; conditions: female, FVB, serum, mice, oral (gavage) 1 mg/kg
ENDPOINT: half-life (min)
Give the value in min but do not write min after it.

Worked examples, 3 molecules total:
Form field: reported half-life of CN(C)C(=O)c1ccc(N2CCCN(c3ccnc4sc(C(N)=O)c(N)c34)CC2)cc1 [15u] 78

Also, NC(=O)c1sc2nccc(N3CCCN(c4ccccc4)CC3)c2c1N [15k] please. 18

Also, CN(C)C(=O)Cc1ccc(N2CCCN(c3ccnc4sc(C(N)=O)c(N)c34)CC2)cc1 [15w] please. 18

Let's switch to this molecule now.
Form field: reported half-life of CNC(=O)c1ccc(N2CCCN(c3ccnc4sc(C(N)=O)c(N)c34)CC2)cc1 [15v] 72

---

test: Mouse PK, oral 1 mg/kg; type: in vivo; conditions: female, FVB, serum, mice, oral (gavage) 1 mg/kg, read-out: Bioavailability (F %)
ENDPOINT: bioavailability (%)
Give the value in % but do not write % after it.

Worked examples, 2 molecules total:
Form field: reported bioavailability of NC(=O)c1sc2nccc(N3CCCN(c4ccccc4)CC3)c2c1N [15k] 9

Also, CN(C)C(=O)c1ccc(N2CCCN(c3ccnc4sc(C(N)=O)c(N)c34)CC2)cc1 [15u] please. 43

***
Form field: reported bioavailability of CNC(=O)c1ccc(N2CCCN(c3ccnc4sc(C(N)=O)c(N)c34)CC2)cc1 [15v] 18

---

test: Mouse PK, intravenous; assay type: in vivo; conditions: mouse, serum, iv; female FVB mice, i.v. 0.5 mg/kg, mixture
// reported Vd for each item listed
Give the value in L/kg but do not write L/kg after it.

Worked examples, 2 molecules total:
Form field: reported Vd of NC(=O)c1sc2nccc(N3CCCN(c4ccccc4)CC3)c2c1N [15k] 2.98

Also, CN(C)C(=O)c1ccc(N2CCCN(c3ccnc4sc(C(N)=O)c(N)c34)CC2)cc1 [15u] please. 1.52

Let's switch to this molecule now.
Form field: reported Vd of CNC(=O)c1ccc(N2CCCN(c3ccnc4sc(C(N)=O)c(N)c34)CC2)cc1 [15v] 2.14

---

// reported IC50 for each item listed
tested on: MV4-11 cells; experiment: MV4-11-Luc proliferation assay; conditions: Homo sapiens, MV4-11, read-out: Inhibition Potency MV4-11-Luc Assay
Please don't drop the unit; write it after the number.

Worked examples, 5 compounds total:
Form field: reported IC50 of CN(CCCO)C(=O)c1ccc(N2CCCN(c3ccnc4sc(C(N)=O)c(N)c34)CC2)cc1 31 nM

Also, CN(C)C(=O)c1ccc(CN2CCCN(c3ccnc4sc(C(N)=O)c(N)c34)CC2)cc1 please. 683 nM

Also, CN(C)C(=O)c1ccc(N2CCCN(c3ccnc4sc(C(N)=O)c(N)c34)CC2)cc1 [15u] please. 30 nM

Also, NC(=O)c1sc2nccc(N3CCCN(c4ccc(C(=O)NCCCO)cc4)CC3)c2c1N please. 83 nM

Also, NC(=O)c1sc2nccc(N3CCCN(c4ccc(C(=O)N5CCNCC5)cc4)CC3)c2c1N please. 79 nM

Let's switch to this compound now.
Form field: reported IC50 of CN1CCN(C(=O)c2ccc(N3CCCN(c4ccnc5sc(C(N)=O)c(N)c45)CC3)cc2)CC1 42 nM
